tgt: HLA-A*1101 (human)
method_description: competition with 125I-labelled standard peptide for purified HLA; gel filtration
conditions: remark: other sources report otherwise
outcome_measure: IC50
Respond with the figure and its unit, in that order.

Prompt: # input binder: KITDFGLAR [Her2/neu.860] ; wanted: its IC50
Completion: 25 nM

Where do these numbers come from? They come from patent US20040018971A1.
